Tested on: amphetamine antibody (pooled antisera)
Experiment: Radioimmunoassay for amphetamine (displacement of 125I-labeled amphetamine analog from antibody)
Format: binding, goats
Settings: cross-reactivity expressed as relative reactivity
In this section, each of the compounds is paired with its reported Relative Reactivity, Radioimmunoassay.
Recorded Endpoint: Relative Reactivity, Radioimmunoassay

> print(dat)
                                   compound  endpoint.result
1  CN[C@@H](C)[C@H](O)c1ccccc1 [Ephedrine (1-form), Ephedrine]           0.0003
2                         CC(C)(N)Cc1ccccc1             0.07
3         CNC(C)CC1CCCC1 (centres unmarked)             0.02
4  CC(COc1ccccc1)NC(C)C(O)c1ccc(O)cc1 (centres unmarked)                0
5        CNC(C)CC1CCCCC1 (centres unmarked)             0.03
